Molecular target: human recombinant PDE4C (Homo sapiens (Human), UniProt Q08493)
Sequence (Q08493 whole entry): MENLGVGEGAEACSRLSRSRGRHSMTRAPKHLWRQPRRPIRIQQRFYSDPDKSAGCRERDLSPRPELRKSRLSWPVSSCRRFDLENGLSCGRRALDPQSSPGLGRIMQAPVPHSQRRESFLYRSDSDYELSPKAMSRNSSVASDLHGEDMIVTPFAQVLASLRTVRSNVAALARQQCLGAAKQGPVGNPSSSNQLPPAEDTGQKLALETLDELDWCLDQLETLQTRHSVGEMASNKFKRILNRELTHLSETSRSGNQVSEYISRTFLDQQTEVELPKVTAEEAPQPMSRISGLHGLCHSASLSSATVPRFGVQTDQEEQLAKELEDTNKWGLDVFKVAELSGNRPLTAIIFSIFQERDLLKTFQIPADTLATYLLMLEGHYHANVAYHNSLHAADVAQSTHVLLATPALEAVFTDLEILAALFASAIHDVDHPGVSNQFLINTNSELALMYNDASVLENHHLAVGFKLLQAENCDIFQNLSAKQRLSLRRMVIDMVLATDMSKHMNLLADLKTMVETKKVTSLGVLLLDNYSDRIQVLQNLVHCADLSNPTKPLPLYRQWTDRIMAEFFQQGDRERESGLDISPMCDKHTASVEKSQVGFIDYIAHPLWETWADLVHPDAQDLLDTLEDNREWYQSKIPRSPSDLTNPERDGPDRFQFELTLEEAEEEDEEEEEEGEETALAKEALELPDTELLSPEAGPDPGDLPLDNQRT
Assay: PDE fluorescence polarization assay (BPS Bioscience kit), PDE4C
Conditions: FAM-cAMP substrate, 1 hr at room temperature; read-out: IC50 for inhibiting PDE4C
pIC50: −log10 of the molar value.
Test Readout: pIC50

Worked cases, answers included:
Compound Smiles | pIC50
CCOc1cc([C@@H](CS(C)(=O)=O)N2C(=O)c3cccc(NC(=O)CNC(=O)C(C)(C)CO[N+](=O)[O-])c3C2=O)ccc1OC | 5.99
CCOc1cc([C@@H](CS(C)(=O)=O)N2C(=O)c3cccc(NC(=O)CO[C@H]4CO[C@H]5[C@@H]4OC[C@H]5O[N+](=O)[O-])c3C2=O)ccc1OC | 6.96
CCOc1cc([C@@H](CS(C)(=O)=O)N2C(=O)c3cccc(NC(=O)CO)c3C2=O)ccc1OC | 6.13
CCOc1cc([C@@H](CS(C)(=O)=O)N2C(=O)c3cccc(NC(=O)COC(=O)C(C)(CO[N+](=O)[O-])CO[N+](=O)[O-])c3C2=O)ccc1OC | 5.65

A: CCOc1cc([C@@H](CS(C)(=O)=O)N2C(=O)c3cccc(NC(=O)CNC(=O)O[C@H]4CO[C@H]5[C@@H]4OC[C@H]5O[N+](=O)[O-])c3C2=O)ccc1OC
B: CCOc1cc([C@@H](CS(C)(=O)=O)N2C(=O)c3cccc(NC(=O)COC(=O)C(C)(C)CO[N+](=O)[O-])c3C2=O)ccc1OC
input: Response body: label of entry with the larger pIC50; valid values A , B . State your choice using its label.
output: A
(A: 6.08, B: 5.65)

* * *

Biological target: human recombinant PDE4A (Homo sapiens (Human), UniProt P27815)
Sequence (P27815 other isoform, or with tags, fused parts or gaps isoform P27815-4): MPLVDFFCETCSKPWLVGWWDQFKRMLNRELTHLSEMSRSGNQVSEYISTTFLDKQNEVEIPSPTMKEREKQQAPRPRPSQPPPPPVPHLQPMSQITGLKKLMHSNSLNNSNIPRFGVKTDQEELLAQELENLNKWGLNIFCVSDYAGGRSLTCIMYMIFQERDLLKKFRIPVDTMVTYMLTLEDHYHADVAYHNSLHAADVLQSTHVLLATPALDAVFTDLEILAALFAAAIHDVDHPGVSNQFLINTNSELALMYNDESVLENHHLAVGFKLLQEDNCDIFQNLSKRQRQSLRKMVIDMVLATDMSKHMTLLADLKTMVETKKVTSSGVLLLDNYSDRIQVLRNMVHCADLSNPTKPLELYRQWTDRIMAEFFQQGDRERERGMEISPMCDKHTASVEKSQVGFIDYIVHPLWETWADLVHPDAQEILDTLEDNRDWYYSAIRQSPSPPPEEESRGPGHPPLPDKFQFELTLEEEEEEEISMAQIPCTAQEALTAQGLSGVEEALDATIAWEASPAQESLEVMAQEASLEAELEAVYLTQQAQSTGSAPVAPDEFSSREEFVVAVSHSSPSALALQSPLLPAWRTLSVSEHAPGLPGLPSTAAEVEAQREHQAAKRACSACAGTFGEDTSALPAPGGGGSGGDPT
Assay: PDE fluorescence polarization assay (BPS Bioscience kit), PDE4A
Conditions: FAM-cAMP substrate, 1 hr at room temperature; read-out: IC50 for inhibiting PDE4A
Test Readout: IC50 (µM)

Worked cases, answers included:
Compound | Target Desc | Test Readout | Display Unit | Endpoint Result
CCOc1cc([C@@H](CS(C)(=O)=O)N2C(=O)c3cccc(NC(=O)COC(=O)C(C)(C)CO[N+](=O)[O-])c3C2=O)ccc1OC [compound-1] | human recombinant PDE4A (Homo sapiens (Human), UniProt P27815) | IC50 | µM | 0.178
CCOc1cc([C@@H](CS(C)(=O)=O)N2C(=O)c3cccc(NC(=O)COC(=O)C(C)(CO[N+](=O)[O-])CO[N+](=O)[O-])c3C2=O)ccc1OC [compound-2] | human recombinant PDE4A (Homo sapiens (Human), UniProt P27815) | IC50 | µM | 0.308
CCOc1cc([C@@H](CS(C)(=O)=O)N2C(=O)c3cccc(NC(=O)CO)c3C2=O)ccc1OC [compound-6] | human recombinant PDE4A (Homo sapiens (Human), UniProt P27815) | IC50 | µM | 0.214

I: CCOc1cc([C@@H](CS(C)(=O)=O)N2C(=O)c3cccc(NC(=O)CNC(=O)C(C)(C)CO[N+](=O)[O-])c3C2=O)ccc1OC [compound-3]
II: CCOc1cc([C@@H](CS(C)(=O)=O)N2C(=O)c3cccc(NC(=O)CNC(=O)O[C@H]4CO[C@H]5[C@@H]4OC[C@H]5O[N+](=O)[O-])c3C2=O)ccc1OC [compound-5]
III: CCOc1cc([C@@H](CS(C)(=O)=O)N2C(=O)c3cccc(NC(=O)CO[C@H]4CO[C@H]5[C@@H]4OC[C@H]5O[N+](=O)[O-])c3C2=O)ccc1OC [compound-4]
input: Write the entries in order, lowest recorded IC50 first. Dear reader, please state the labels in the requested order.
output: II, I, III
(II: 0.038 µM, I: 0.215 µM, III: 0.71 µM)
